- Protocol Notes: Ex vivo biodistribution in PC-3 tumor-bearing mice
- Applied Conditions: male, NRG, mouse, adrenal, iv, total radioactivity, Biodistribution Adrenal Mean, 1 h post-injection, mice bearing PC-3 tumor xenografts, n = 4
Numbered stars: 1 amine (or outer) side, 2 acyl side, 3 side chain; on linkers, the order of the positions; unused ones are H or OH. Square brackets hold non-standard residues; d marks the D form. Peptide text beside a SMILES is read from it. * marks the point of attachment. DOTA = O=C(O)CN1CCN(CC(=O)O)CCN(CC(=O)*)CCN(CC(=O)O)CC1; Leuψ(CH2N)ThzNH2 = CC(C)C[C@@H](CN1CSC[C@H]1C(N)=O)N*; X1 = O=C(CN1CCC(N[*:1])CC1)[*:2]
Parameter Measured: tissue uptake at 1 h

1) CC(C)C[C@@H](CN1CSC[C@H]1C(N)=O)NC(=O)[C@H](Cc1cnc[nH]1)NC(=O)CN(C)C(=O)[C@@H](NC(=O)[C@H](C)NC(=O)[C@H](Cc1c[nH]c2ccccc12)NC(=O)[C@H](CCC(N)=O)NC(=O)[C@@H](Cc1ccccc1)NC(=O)CN1CCC(NC(=O)CN2CCN(CC(=O)O)CCN(CC(=O)O)CCN(CC(=O)O)CC2)CC1)C(C)C [^68Ga-LW01090, metal not drawn] = 0.58 %ID/g
2) CC(C)C[C@H](NC(=O)[C@H](Cc1c[nH]cn1)NC(=O)CNC(=O)[C@@H](NC(=O)[C@H](C)NC(=O)[C@H](Cc1c[nH]c2ccccc12)NC(=O)[C@H](CCC(N)=O)NC(=O)[C@@H](Cc1ccccc1)NC(=O)CN1CCC(NC(=O)CN2CCN(CC(=O)O)CCN(CC(=O)O)CCN(CC(=O)O)CC2)CC1)C(C)C)C(=O)N1CSC[C@H]1C(N)=O [^68Ga-LW01025, metal not drawn] = 0.54 %ID/g
3) CC(C)C[C@H](NC(=O)[C@H](Cc1c[nH]cn1)N(C)C(=O)CNC(=O)[C@@H](NC(=O)[C@H](C)NC(=O)[C@H](Cc1c[nH]c2ccccc12)NC(=O)[C@H](CCC(N)=O)NC(=O)[C@@H](Cc1ccccc1)NC(=O)CN1CCC(NC(=O)CN2CCN(CC(=O)O)CCN(CC(=O)O)CCN(CC(=O)O)CC2)CC1)C(C)C)C(=O)N1CSC[C@H]1C(N)=O [^68Ga-LW01107, metal not drawn] = 0.32 %ID/g
4) CC(C)C[C@@H](CN1CCC[C@H]1C(N)=O)NC(=O)[C@H](Cc1c[nH]cn1)NC(=O)CN(C)C(=O)[C@@H](NC(=O)[C@H](C)NC(=O)[C@H](Cc1c[nH]c2ccccc12)NC(=O)[C@H](CCC(N)=O)NC(=O)[C@@H](Cc1ccccc1)NC(=O)CN1CCC(NC(=O)CN2CCN(CC(=O)O)CCN(CC(=O)O)CCN(CC(=O)O)CC2)CC1)C(C)C [^68Ga-LW02045, metal not drawn] = 0.44 %ID/g
5) CC(C)C[C@@H](CN1CSC[C@H]1C(N)=O)NC(=O)[C@H](Cc1c[nH]cn1)NC(=O)CNC(=O)[C@@H](NC(=O)[C@H](C)NC(=O)[C@H](Cc1c[nH]c2ccccc12)NC(=O)[C@H](CCC(N)=O)NC(=O)[C@@H](Cc1ccc2ccccc2c1)NC(=O)CN1CCC(NC(=O)CN2CCN(CC(=O)O)CCN(CC(=O)O)CCN(CC(=O)O)CC2)CC1)C(C)C [^68Ga-LW01059, metal not drawn] = 1.81 %ID/g
6) CC(C)C[C@@H](CN1CSC[C@H]1C(N)=O)NC(=O)[C@H](Cc1c[nH]cn1)NC(=O)CNC(=O)[C@@H](NC(=O)[C@H](C)NC(=O)[C@H](Cc1c[nH]c2ccccc12)NC(=O)[C@H](Cc1c[nH]cn1)NC(=O)[C@@H](Cc1ccccc1)NC(=O)CN1CCC(NC(=O)CN2CCN(CC(=O)O)CCN(CC(=O)O)CCN(CC(=O)O)CC2)CC1)C(C)C [^68Ga-LW01102, metal not drawn] ({DOTA}-[X1][dF]HWAVGH-{Leuψ(CH2N)ThzNH2}) = 1.36 %ID/g
